Biological target: bovine trypsin (bovine, UniProt P00760 24-246)
Sequence (P00760 24-246): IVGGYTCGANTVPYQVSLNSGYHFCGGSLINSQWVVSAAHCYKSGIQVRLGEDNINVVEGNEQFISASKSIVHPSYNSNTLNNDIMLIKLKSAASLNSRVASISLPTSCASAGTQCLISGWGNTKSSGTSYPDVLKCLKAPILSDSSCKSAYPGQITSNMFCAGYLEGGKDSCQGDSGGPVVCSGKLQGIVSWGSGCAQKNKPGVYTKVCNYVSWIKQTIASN
Test: trypsin inhibition, BApNA substrate
Bridge positions count the residues as written; N and C are the ends. Ends that are not written are not given here.
assayReadout: IC50

{"binder": "CGRATKSIPAICF (disulfide 1-12 (inferred)) [BT10]", "IC50": "110 nM"}
{"binder": "CRRATKSIPPICF (disulfide 1-12 (inferred)) [BT76]", "IC50": "50 nM"}

Quick one: give me IC50 for each item below, same order please.
1. RCTKSIPPQCH (disulfide 2-10 (inferred)) [BT63]
2. ACTKSNPPQCR (disulfide 2-10 (inferred)) [BT68]
3. CLRATKSIPPICF (disulfide 1-12 (inferred)) [BT72]

90 nM
2430 nM
130 nM

Answer with the recorded IC50 of CGRATRSIPPICY (disulfide 1-12 (inferred)) [BT18] only. 39400 nM
